B1: EHEE_rd3_0053 (parent)
chain: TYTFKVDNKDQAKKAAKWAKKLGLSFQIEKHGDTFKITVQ

# Variants of: B1
# protocol.text: folding stability dG (cDNA display proteolysis); higher = more stable
# experimental.parameters: PBS, room temperature
Note to self: values exactly at 2 kcal/mol are fulfilled. So folding stability dG at or above 2 kcal/mol is fulfilled, below is not fulfilled.

Worked cases, answers included:
variant.designation	classification
A15F	fulfilled
T1G	fulfilled
I37L	not fulfilled

Prompt: folding stability dG >= 2 kcal/mol for `L24G` ?
Completion: not fulfilled

Prompt: Is the recorded value of folding stability dG equal to or greater than 2 kcal/mol for this variant? `K5M`
Completion: fulfilled

Prompt: Reported folding stability dG reaches at least 2 kcal/mol for `T34V` ?
Completion: fulfilled

Prompt: hey, is folding stability dG for this one >= 2 kcal/mol? `I28Y`
Completion: not fulfilled

Prompt: Dear colleague, could you confirm whether `K20T` has folding stability dG at or above 2 kcal/mol?
Completion: fulfilled

Prompt: Dear colleague, could you confirm whether `V6Q` has folding stability dG at or above 2 kcal/mol?
Completion: not fulfilled

Prompt: Say whether `F4Q` shows folding stability dG of 2 kcal/mol or more.
Completion: not fulfilled

Prompt: Please check the record `K17L` and state if its folding stability dG is at or above 2 kcal/mol.
Completion: fulfilled

Prompt: folding stability dG >= 2 kcal/mol for `Q27H` ?
Completion: fulfilled

Prompt: Determine whether measured folding stability dG meets or exceeds 2 kcal/mol for `G23E`
Completion: not fulfilled

Prompt: Reported folding stability dG reaches at least 2 kcal/mol for `N8L` ?
Completion: not fulfilled
